All values here come from ChEMBL document CHEMBL6177989.

System: HTR-8/SVneo
Assay: Antioxidant activity in H2O2 induced human HTR-8/SVneo cells assessed as reduction in sFLT-1 protein expression at 0.1 to 50 uM preincubated for 30 mins followed by H2O2 addition and measured after 20 hrs by ELISA method
Assay type: functional, cell-based
Conditions: dose 0.1-50 µM, time 20.5 hrs
Active and inactive are the calls of the source. The calls are words filed in the database; no cut-off is given here.
measured-attribute: Activity

> print(dat)
                  compound.structure.string  reported.value
1  O=[N+]([O-])c1ccc(/C=N/Nc2cccc(C(F)(F)F)c2)cc1          Active
2     CN(C)c1ccc(/C=N/Nc2ccccc2C(F)(F)F)cc1          Active
3  Fc1c(F)c(F)c(/C=N/Nc2ccc(C(F)(F)F)cc2)c(F)c1F          Active
4   CN(C)c1ccc(/C=N/Nc2cccc(C(F)(F)F)c2)cc1          Active
5   COc1ccc(/C=N/Nc2ccc(C(F)(F)F)cc2)c(O)c1          Active
6   CN(C)c1ccc(/C=N/Nc2ccc(C(F)(F)F)cc2)cc1          Active
7  FC(F)(F)c1cccc(N/N=C/c2ccc(/C=N/Nc3cccc(C(F)(F)F)c3)cc2)c1          Active
8    COc1ccc(/C=N/Nc2cccc(C(F)(F)F)c2)cc1OC          Active
